# assayProcedure: protein stability index of a GFP-peptide fusion (GPS, HEK-293T) (PSI 1-6); higher = more stable;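 further: 24-mer peptide tiles fused after GFP, lentivirally expressed, FACS-sorted into six equal bins by GFP/DsRed ratio, decoded by Illumina sequencing, PSI is the read-weighted mean bin number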
# studyConditions: treatment: DMSO; c terminus: a fixed tail appended
So basically, the class depends on measured protein stability index, and the ranges are low interval (below 3), middle interval (3 to below 4), high interval (4 or more)

Worked cases, answers included:
sequenceText	assignedClass
ALKLFPVQPCSAVHLLLKKVLFAL [FAM189A2]	low interval
LETLPEFRDEKDYPASTSQDSFEA [KCNA3]	high interval
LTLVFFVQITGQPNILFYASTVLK [SLC2A12]	middle interval

q: Class for SEEMIAEFKAAFDMFDADGGGDIS [TNNC2] ?
a: high interval

q: Please report the category associated with SQEAGLPAGAGPSPTFPALGIGMD [SEPHS2] , nothing else.
a: high interval

q: Could you place NHTTVTNSTPLRAACFDGRLDIVK [FEM1B] in its proper category? Many thanks.
a: middle interval

q: Tag the class for MSLVLHGNNLLVFGGTGIPFGESN [KLHDC10]
a: low interval

q: For this sequence, which bin applies? LPPPSALKKGSKEKQADFLDKQMS [NFE2L1]
a: high interval

q: For this sequence, which bin applies? WLSTAPTEPLTHWYQVRCLFQSPL [CARM1]
a: low interval

q: Which of the defined bands does the recorded protein stability index of VRVPNGGGGGGGLPISTVREVALL [CDK4] sit within?
a: low interval

q: Note: place this sequence into its band. Item: PDVTQQLLQKYNMQFLIRSHECKP [PPEF2]
a: low interval

* * *

Recorded protein stability index values for a group of sequences are listed next.
# assayProcedure: protein stability index of a GFP-peptide fusion (GPS, HEK-293T) (PSI 1-6); higher = more stable
# studyConditions: treatment: MLN4924 1 uM, 8 h; c terminus: a fixed tail appended
Respond numerically, and do not add a unit to the figure.

Worked cases, protein stability index given:
sequenceText	protein stability index
SRLWDSRLRHYLGSRYDARRGVSD [DNAAF3]	3.23
QGENQEHLVIAEMMELGSRSRGAS [FATE1]	4.73
CDEARNHYGGVVSLIPLILDLMKE [SPACA9]	2.36
IIALIALSVGQYNCPGQYTFSMPS [CD69]	3.3
ANRPDPNTPMEETVRAMTHVINQG [KCNAB2]	4.78
ITNQVVAQVDGAAMFAADPKKPIG [RAD51]	4.51
PGYLPGAMPPYGQGPPMVPPYQGG [ZNF207]	3.42
EGSPRNLGTPTSSTPRPSITPTKK [C2CD2L]	5.34
REVILKELAEATWCGISTDMWRSE [ZBED1]	2.93
RAPPKRKRKRVKQRINTYVFVGNQ [PCMTD1]	3.41

q: Name the reported protein stability index value associated with the sequence LMSSAVPMTPEDPSFWDCFCFTEE [AASDHPPT]
a: 3.86

q: Item under review: EGSDYINASFIDGYRQQKAYIATQ [PTPRD] . Reported protein stability index?
a: 3.34

q: Give its protein stability index value. Item: IMLKNISQDERLDVLLTLKHTVKE [IQUB]
a: 2.09

q: I am curious: what protein stability index value has been reported for KTEAEIAHIALETLEGHQRAIMAH [FLOT1] ?
a: 4.06
